// TGI lookup, one value per entry
# System: DMS 273 small cell lung
# protocol summary: NCI tumour cell line growth inhibition, 48 h

// worked examples, TGI included
compound	readout value
Cc1cccc(C(C)(C)C)c1NC(=O)CC1C(=O)Nc2ccccc2S1(=O)=O (stereo unspecified)	14.9 µM
Cc1cc(/C=C/c2cc[n+](C)c3ccccc23)c(O)c2ncccc12	10.4 µM
CCOC(=O)N1CCC(=O)C(CNC23CC4CC(CC(C4)C2)C3)C1 (stereo unspecified)	52.9 µM
Cc1c(N2CCN(C)CC2)nc2ccc(Cl)cc2c1-c1ccccc1	32.1 µM
O=c1ncc(F)cn1C1OC(CO)C(O)C1O (stereo unspecified)	> 44.6 µM

Okay, next one:
Checklist item: TGI tested on DMS 273 small cell lung, entry CC(Nc1ccc(S(=O)(=O)N=C(N)N)cc1)c1c2ccccc2nc2ccccc12 (stereo unspecified) , value?
> 100 µM

* * *

// TGI lookup, one value per entry
# System: SK-MEL-28 melanoma
# protocol summary: NCI tumour cell line growth inhibition, 48 h

Checklist item: TGI tested on SK-MEL-28 melanoma, entry "COc1ccc(CCCNC(=O)c2cc(OC)c(OC)cc2CCO)cc1OC" , value?
> 100 µM

* * *

# Test system: OVCAR-4 ovarian
# protocol summary: NCI tumour cell line growth inhibition, 48 h
property name: TGI

compound	readout value
CC(C)N=C(N)NC#N	> 100 µM
CC(C)=CCC/C(C)=C/CC/C(C)=C/CC/C(C)=C/CC/C(C)=C/CC/C(C)=C/CC/C(C)=C/CC/C(C)=C/CC/C(C)=C/CO	> 100 µM
N#Cc1c(-c2ccc(Cl)cc2)[nH]c(=O)n(C2OC(CO)C(O)C(O)C2O)c1=O (stereo not drawn)	> 100 µM
CS(=O)(=O)CCc1cccc(C(=O)c2cnn(-c3ccc(F)cc3)c2N)c1	> 25 µM
CN(C)C(c1ccccc1)C1COC2Cc3ccccc3C1O2 (stereo not drawn)	> 100 µM
CNC(=O)c1ccccc1Nc1nc(Nc2cc(OC)c(OC)c(OC)c2)ncc1Br	2.4 µM
O=c1ccn(COC(COCc2ccccc2)COCc2ccccc2)c(=O)[nH]1	> 100 µM

Okay, next one:
Which TGI value belongs to "CC(=O)OC(C)(C)/C(C)=C/C(=O)O[C@H]1C(=O)O[C@@H]2C[C@H]3[C@H](C)C(=O)C(O[C@@H]4O[C@H](CO)[C@@H](O)[C@H](O)[C@H]4O)=C[C@]3(C)[C@H]3[C@@H](O)[C@H](O)[C@@]4(C(=O)O)OC[C@]32[C@@H]14" ?
> 100 µM

* * *

# System: SR leukemia
# protocol summary: NCI tumour cell line growth inhibition, 48 h
property name: TGI

// worked examples, TGI included
molecule	TGI
CC(=O)C1=C(O)C=C2Oc3c(C(=O)/C=C/c4c(Cl)cccc4Cl)c(O)c(C)c(O)c3[C@]2(C)C1=O	7.7 µM
Oc1ccc(C(c2ccc(O)cc2)c2ccc(O)cc2)cc1	75.3 µM

Which TGI value belongs to "C=C(CCC/C(C)=C/C=C/[C@@H](C)CCCc1ccoc1)C[C@@H]1OC(=O)[C@H](C)[C@@H]1O" ?
> 50 µM

Which TGI value belongs to "O=c1c(Br)cc2nc3ccccc3sc-2c1Br" ?
> 100 µM

Which TGI value belongs to CC(Nc1ccc(S(=O)(=O)N=C(N)N)cc1)c1c2ccccc2nc2ccccc12 (configuration not stated) ?
65.7 µM

Which TGI value belongs to O=C(c1ccccc1)C(CN1CCCCC1)c1ccccc1 (configuration not stated) ?
4.26 µM

Which TGI value belongs to "COc1ccc(CCCNC(=O)c2cc(OC)c(OC)cc2CCO)cc1OC" ?
> 100 µM

Which TGI value belongs to NC(Cc1ccc(N(CCCl)CCCl)cc1)C(=O)NC(CCC(=O)O)C(=O)O (configuration not stated) ?
> 100 µM

* * *

// TGI lookup, one value per entry
# System: HOP-92 NSCLC
# protocol summary: NCI tumour cell line growth inhibition, 48 h

molecule	TGI
COc1ccc(-c2cc(=O)c3cc(OC)ccc3[nH]2)cc1	> 100 µM
O=C(Nc1ccncc1)C(=O)c1cn(S(=O)(=O)c2ccc(Cl)cc2)c2ccccc12	19.9 µM
C#CCSc1cc(Cl)c(C)cc1S(=O)(=O)Nc1nc2ccccc2o1	51.3 µM
COC(=O)C(Cc1c[nH]c2ccccc12)NC(=O)c1ccc(-c2ccc(Cl)cc2Cl)o1 (stereo not given)	71.4 µM
O=c1c(Br)cc2nc3ccccc3sc-2c1Br	> 100 µM
COc1ccc2ccccc2c1C1NC(=O)c2ccccc2N1 (stereo not given)	> 80.6 µM
O=c1[nH]nc(Cc2c[nH]c3ccccc23)o1	> 100 µM
CCOC(=O)N1CCC(=O)C(CNC23CC4CC(CC(C4)C2)C3)C1 (stereo not given)	41 µM
CC(C)=CCC[C@](C)(O)[C@H]1CC[C@]2(C)[C@@H]1CC[C@@H]1[C@@]3(C)CC/C(=N/O)C(C)(C)[C@@H]3CC[C@]12C	26.2 µM
CC1CCCC(C(O)CC2CC(=O)NC(=O)C2)C1O (stereo not given)	> 100 µM

Which TGI value belongs to CC(=O)OC[C@@H](COC(=O)/C=C/c1ccc(O)cc1)OC1OC(CO)C(O)C(O)C1O (stereo not given in full) ?
> 100 µM

Which TGI value belongs to O=C(c1ccccc1)C1OC12C(=O)Nc1c(Cl)cc(Cl)cc12 (stereo not given) ?
> 93.2 µM

Which TGI value belongs to CC(=O)C1C(c2ccc(N(C)C)cc2)c2cc3c(cc2OC1(C)O)OCO3 (stereo not given) ?
55.4 µM

Which TGI value belongs to "CC(=O)NC1(c2cc3ccccc3s2)CCCCCC1" ?
> 100 µM

Which TGI value belongs to "Nc1nnnn1CCO" ?
> 100 µM

* * *

# Tested on: NCI-H23 lung
# protocol summary: NCI tumour cell line growth inhibition, 48 h; in the data active = GI50 below about 0.43 µM; inactive = the rest
Reply using exactly one outcome from label 1 (active), label 0 (inactive)

# count of solved cases: 6
compound	study target	label class
CC(C)([NH-])CO.CC(C)([NH-])CO.[Cl][Cd][Cl]	NCI-H23 lung	label 0
CNC(=O)c1ccccc1Nc1nc(Nc2cc(OC)c(OC)c(OC)c2)ncc1Br	NCI-H23 lung	label 1
N=c1ccn(O)cc1/C=C1/C(=O)Nc2ccccc21	NCI-H23 lung	label 0
COc1cc(NCCCN=C(N)NC(N)=NC(C)C)c2ncccc2c1	NCI-H23 lung	label 0
CCC(=C/[C@H](C)C/C=C/C(C)=C/[C@@H](C)C(=O)[C@@H](C)[C@H](O)[C@@H](C)CC)/C=C/[C@@H]1OC(=O)C=C[C@H]1C	NCI-H23 lung	label 1
O=C(c1ccccc1)C(CN1CCCCC1)c1ccccc1 (stereo not given)	NCI-H23 lung	label 0

Called result for "CC(C)=CCC[C@](C)(O)[C@H]1CC[C@]2(C)[C@@H]1CC[C@@H]1[C@@]3(C)CC/C(=N/O)C(C)(C)[C@@H]3CC[C@]12C"
label 0

Called result for "Nc1c(C(=O)Nc2cccc(F)c2)sc2nc3c(cc12)C(=O)CCC3"
label 0

* * *

// TGI lookup, one value per entry
# Test system: SR leukemia
# protocol summary: NCI tumour cell line growth inhibition, 48 h

compound	readout value
Cc1cccc(C)c1NC(=O)C1C(=O)N(c2c(C)cccc2C)C(=O)/C1=N\N (stereo unspecified)	> 100 µM
O=C(O)CCC(N=Cc1nc(-c2ccccc2)oc1O)C(=O)O (stereo unspecified)	> 100 µM
C/C=C(\C)C(O)C(C)C(O)C/C=C(C)/C=C(\C)C/C(C)=C/C/C=C(\C)C(O)C(C)c1ccc(CCC)c(=O)o1 (stereo unspecified)	> 100 µM

Checklist item: TGI tested on SR leukemia, entry O=c1ncc(F)cn1C1OC(CO)C(O)C1O (stereo unspecified) , value?
> 46.8 µM

Checklist item: TGI tested on SR leukemia, entry "O=C1C=CC(=Nc2cc(Br)c(O)c(Br)c2)C=C1" , value?
> 100 µM

Checklist item: TGI tested on SR leukemia, entry Nc1nc2c(ncn2C2C=CC(CO)C2)c(=O)[nH]1 (stereo unspecified) , value?
> 100 µM

* * *

# Test system: SNB-75 CNS
# protocol summary: NCI tumour cell line growth inhibition, 48 h
// TGI lookup, one value per entry

// worked examples, TGI included
compound	TGI
CC(=O)Nc1c(C)cc2c(nc3n2CCC3OC(C)=O)c1[N+](=O)[O-] (centres undefined)	> 100 µM
Nc1nc2c(ncn2C2C=CC(CO)C2)c(=O)[nH]1 (centres undefined)	> 100 µM
COC1C(O)C(n2ncc3c(SC)nc(SC)nc32)OC1C(O)CO (centres undefined)	> 100 µM
COc1ccc(CCCNC(=O)c2cc(OC)c(OC)cc2CCO)cc1OC	> 100 µM

Which TGI value belongs to "O=C1C2=C(CC3=C(C2)CS(=O)(=O)C3)C(=O)C2=C1CC1=C(C2)CS(=O)(=O)C1" ?
> 41 µM

Which TGI value belongs to "COc1ccc(Cc2nnc(Nc3ccc(Br)cc3)[nH]c2=O)cc1OC" ?
> 100 µM

Which TGI value belongs to "COc1cc(/C=N/n2c(-c3ccccc3)nn(C(C)=O)c2=O)cc(OC)c1OC" ?
21.1 µM

Which TGI value belongs to "NCCCCCCCn1c2c(c3ccccc3c1=O)C(=O)c1ccccc1-2" ?
4.55 µM

The reported numbers originate from PubChem BioAssay (NCI).
